Hi there, I'd appreciate the recorded melting point for every entry that follows.

Here's what some known entries look like.
Molecule	Data value
CON(Cc1ccc(F)c(C)c1)C(=O)/C=C(\O)C(=O)NS(C)(=O)=O [Example 22]	138 °C (dec.)
CON(Cc1ccc(F)cc1Cl)C(=O)/C=C(\O)C(=O)NS(C)(=O)=O [Example 28]	144 °C (dec.)
CON(Cc1ccc(F)cc1)C(=O)/C=C(\O)C(=O)NS(C)(=O)=O [Example 2]	137 °C (dec.)

Next molecule, melting point to be filled in.
Given the entry CON(Cc1ccc(C(=O)O)cc1)C(=O)/C=C(\O)C(=O)NS(C)(=O)=O [Example 21] , report its measured melting point.
119 to 124 °C

---

target: HIV-integrase (Human immunodeficiency virus type 1 group M subtype B, UniProt P04585); construct: 0.26 ng of recombinant integrase was incubated with the beads; assay: HIV-Integrase Inhibition Activity (SPA bead strand-transfer assay); type: biochemical; details: 10 μM compound; recombinant integrase
Metric name: inhibition at 10 µM (%)
Give bare numbers, in %.

Here's what some known entries look like.
Compound	Data value
CON(Cc1ccc(F)cc1)C(=O)/C=C(\O)C(=O)NS(=O)(=O)c1ccc(C)cc1	99
CN(C(=O)/C=C(\O)C(=O)NS(C)(=O)=O)C(Cc1ccc(Cl)cc1)Cc1ccc(Cl)cc1	86
CON(Cc1ccc(F)cc1)C(=O)/C=C(\O)C(=O)NS(=O)(=O)c1ccc(-c2cc(C(F)(F)F)n(C)n2)s1	99
CON(Cc1ccc(C(=O)O)cc1)C(=O)/C=C(\O)C(=O)NS(C)(=O)=O	30
CON(Cc1ccc(F)cc1)C(=O)/C=C(\O)C(=O)NS(=O)(=O)C1CCS(=O)(=O)C1 (centres unmarked)	98

Dear reader, for each entry below, please note its inhibition at 10 µM.
1. CON(Cc1ccc(F)cc1)C(=O)/C=C(\O)C(=O)NS(=O)(=O)c1sc(C)nc1C
2. CON(C(=O)/C=C(\O)C(=O)NS(C)(=O)=O)C(c1ccc(F)cc1)c1ccc(F)cc1
3. CON(Cc1ccc(F)cc1)C(=O)/C=C(\O)C(=O)NS(=O)(=O)C1(CC2CC2)CC1

98
60
99

---

target: HIV-integrase (Human immunodeficiency virus type 1 group M subtype B, UniProt P04585); construct: 0.26 ng of recombinant integrase was incubated with the beads; assay: HIV-Integrase Inhibition Activity (SPA bead strand-transfer assay); format: biochemical; conditions: 10 μM compound; recombinant integrase
Metric name: inhibition at 10 µM (%)
Give bare numbers, in %.

Here's what some known entries look like.
Compound	Metric name	Data value
CCN1CCCC1CNC(=O)c1cc(S(=O)(=O)NC(=O)/C(O)=C/C(=O)N(Cc2ccc(F)cc2)OC)ccc1OC (centres unmarked)	inhibition at 10 µM	93
CON(Cc1ccc(F)cc1)C(=O)/C=C(\O)C(=O)NS(=O)(=O)C1CCCCC1	inhibition at 10 µM	99
CON(Cc1ccc(F)c(C)c1)C(=O)/C=C(\O)C(=O)NS(C)(=O)=O	inhibition at 10 µM	99
CON(Cc1ccc(F)cc1)C(=O)/C=C(\O)C(=O)NS(=O)(=O)c1c(C)noc1C	inhibition at 10 µM	99

Next compound, inhibition at 10 µM to be filled in.
Given the entry "CON(Cc1ccc(F)cc1)C(=O)/C=C(\O)C(=O)NS(=O)(=O)CC1CCC1" , report its measured inhibition at 10 µM.
99

---

Hi there, I'd appreciate the recorded inhibition at 10 µM for every entry that follows.
target: HIV-integrase (Human immunodeficiency virus type 1 group M subtype B); construct: 0.26 ng of recombinant integrase was incubated with the beads; experiment: HIV-Integrase Inhibition Activity (SPA bead strand-transfer assay); assay type: biochemical; settings: 10 μM compound; recombinant integrase
Give bare numbers, in %.

Compound	inhibition at 10 µM / %
CON(Cc1ccc(F)cc1)C(=O)/C=C(\O)C(=O)NS(=O)(=O)c1nnc(NC(C)=O)s1 [Example 3]	99
CON(Cc1ccc(F)cc1)C(=O)/C=C(\O)C(=O)NS(=O)(=O)c1ccc(NC(C)=O)cc1 [Example 11]	99
CON(Cc1ccc(F)cc1)C(=O)/C=C(\O)C(=O)NS(=O)(=O)C1(Cc2ccccc2)CC1 [Example 20]	99
CON(Cc1ccc(F)cc1Cl)C(=O)/C=C(\O)C(=O)NS(C)(=O)=O [Example 28]	99
CON(Cc1ccc(F)cc1)C(=O)/C=C(\O)C(=O)NS(C)(=O)=O [Example 2]	99
CON(Cc1ccc(C)c(F)c1)C(=O)/C=C(\O)C(=O)NS(C)(=O)=O [Example 25]	99
CON(Cc1ccccc1OC(C)C)C(=O)/C=C(\O)C(=O)NS(C)(=O)=O [Example 23]	99
CON(Cc1ccc(F)cc1)C(=O)/C=C(\O)C(=O)NS(=O)(=O)c1cccc(C)n1 [Example 9]	94

Dear reader, for each entry below, please note its inhibition at 10 µM.
1. CON(C(=O)/C=C(\O)C(=O)NS(C)(=O)=O)C(C)c1ccc(F)cc1 (centres unmarked) [Example 26]
2. CON(CCCc1ccc(F)cc1)C(=O)/C=C(\O)C(=O)NS(C)(=O)=O [Example 30]
3. CON(Cc1ccc(C(=O)OC(C)(C)C)cc1)C(=O)/C=C(\O)C(=O)NS(C)(=O)=O [Example 24]
4. CON(Cc1ccc(F)cc1)C(=O)/C=C(\O)C(=O)NS(=O)(=O)c1cn(C)cn1 [Example 14]
5. CON(Cc1ccc(F)cc1)C(=O)/C=C(\O)C(=O)NS(=O)(=O)c1ccc(Cl)s1 [Example 10]

1: 99; 2: 98; 3: 15; 4: 93; 5: 95

Dear reader, for each entry below, please note its inhibition at 10 µM.
1. CCCC1(S(=O)(=O)NC(=O)/C(O)=C/C(=O)N(Cc2ccc(F)cc2)OC)CC1 [Example 18]
2. CON(Cc1ccc(F)cc1)C(=O)/C=C(\O)C(=O)NS(=O)(=O)C1CCCC1 [Example 6]
3. CON(Cc1ccc(F)cc1)C(=O)/C=C(\O)C(=O)NS(=O)(=O)C1CC1 [Example 7]
4. CCOc1ccc2nc(S(=O)(=O)NC(=O)C(O)=CC(=O)N(Cc3ccc(F)cc3)OC)sc2c1 [Example 12]

1. 99
2. 99
3. 99
4. 99
